system: MNU-induced breast cancer; experiment: In vivo anticancer screening, MNU-induced mammary tumorigenesis; parameters: species or system female Wistar rats; details: dose 5 mg/kg per os after MNU
Marks after values point to notes of the source that are not given here.
OBSERVED_PROPERTY: Tumor Latency (week)

# example entries with known answers
CC(=O)c1cc(C(=O)O[C@@H]2/C=C/C(=O)O[C@@H](O)CCC/C=C/[C@@H]3C[C@H](O)C[C@H]32)ccc1OCCN1CCCC(O)C1=O (stereo partly shown)    12 *^,†,‡ week
CC(=O)c1cc(C(=O)O[C@@H]2/C=C/C(=O)O[C@@H](O)CCC/C=C/[C@@H]3C[C@H](O)C[C@H]32)ccc1OCCN(C)C    9 * week
CC(=O)c1cc(C(=O)O[C@@H]2/C=C/C(=O)O[C@@H](O)CCC/C=C/[C@@H]3C[C@H](O)C[C@H]32)ccc1OCCS(=O)(=O)O    10 *^,† week
O=C(c1ccc(OCCN2CCCCC2)cc1)c1c(-c2ccc(O)cc2)sc2cc(O)ccc12 [Ral., Raloxifene, reference compound]    8 * week
CNCCOc1ccc(C(=O)O[C@@H]2/C=C/C(=O)O[C@@H](O)CCC/C=C/[C@@H]3C[C@H](O)C[C@H]32)cc1C(C)=O    9 * week

Task: Please report Tumor Latency (week) for the following molecule: CC(=O)c1cc(C(=O)OC2/C=C/C(=O)O[C@@H](O)CCC/C=C/[C@@H]3C[C@H](O)C[C@@H]23)ccc1OCCN1CCC=C(C(=O)O)C1 (stereo partly shown)
Output: 12 *^,†,‡ week

Task: Return the recorded Tumor Latency (week) value; entry: CC(=O)c1cc(C(=O)O[C@@H]2/C=C/C(=O)O[C@@H](O)CCC/C=C/[C@@H]3C[C@H](O)C[C@H]32)ccc1OCCN1CC(C(=O)O)=CCC1=O
Output: 12 *^,†,‡ week

###

assay: Serum biochemical markers after treatment of MNU-induced rats; type: in vivo, Wistar rats; details: serum, dose 50 mg/kg
OBSERVED_PROPERTY: AST (U/L)
Form entry: value (U/L) — number only.

O=C(c1ccc(OCCN2CCCCC2)cc1)c1c(-c2ccc(O)cc2)sc2cc(O)ccc12 [Ral., Raloxifene, reference compound]    58.41
CC(=O)c1cc(C(=O)OC2/C=C/C(=O)O[C@@H](O)CCC/C=C/[C@@H]3C[C@H](O)C[C@@H]23)ccc1OCCN1CCC=C(C(=O)O)C1 (stereo partly drawn) [Compound 3DPQ-3]    61.63

Consider the additional compound presented here.
Task: Let me know recorded AST (U/L) for CC(=O)c1cc(C(=O)O[C@@H]2/C=C/C(=O)O[C@@H](O)CCC/C=C/[C@@H]3C[C@H](O)C[C@H]32)ccc1OCCS(=O)(=O)O [Compound 3DPQ-4] , thanks.
Output: 59.46

###

tested on: Ishikawa endometrial adenocarcinoma cells; test: Antiproliferative assay; assay type: cell-based; details: Homo sapiens, growth inhibition
OBSERVED_PROPERTY: IC50 (nM)
Form entry: value (nM) — number only.

CC(=O)c1cc(C(=O)O[C@@H]2/C=C/C(=O)O[C@@H](O)CCC/C=C/[C@@H]3C[C@H](O)C[C@H]32)ccc1OCCS(=O)(=O)O    0.92
CC(=O)c1cc(C(=O)O[C@@H]2/C=C/C(=O)O[C@@H](O)CCC/C=C/[C@@H]3C[C@H](O)C[C@H]32)ccc1OCCN1CCCCC1    1.55
CC/C(=C(\c1ccc(O)cc1)c1ccc(OCCN(C)C)cc1)c1ccccc1 [Compound 4-OHT., 4-hydroxytamoxifen, reference compound]    1.29

Let's switch to this compound now.
Task: Recall the reported IC50 of CC(=O)c1cc(C(=O)O[C@@H]2/C=C/C(=O)O[C@@H](O)CCC/C=C/[C@@H]3C[C@H](O)C[C@H]32)ccc1OCCN1CCCC2CCCNC21 (some centres unmarked) on Ishikawa endometrial adenocarcinoma cells and write it down.
Output: 1.98

These measurements were taken from paper PMC9101642.
